The values you see were collected from PubChem BioAssay.

Procedure Details: inhibition of Brca1/Bard1 split-luciferase complementation, confirmation, counter-screen for Mdm2/MdmX interaction inhibitor project, luminescence, single concentration (AID 504668)
Test Conditions: Brca1/Bard1 bimolecular luciferase complementation counterscreen, at 8 µM, stronger effect = higher value

{"columns": ["Compound", "inhibition [%]"],
 "data": [
  ["COc1ccc2c(c1)/C(=C/c1cnc[nH]1)C(=O)N2", 32.2],
  ["C[C@]12CC[C@H]3[C@@H](CC[C@]4(O)C[C@@H](O)CC[C@]34C=O)[C@@]1(O)CC[C@@H]2C1=CC(=O)OC1", 28],
  ["CCn1nc(/C=C/c2ccccc2)nc2c(=O)n(C)c(=O)nc1-2", 24.6],
  ["C[C@@H]1O[C@@H](O[C@H]2C[C@@H](O)[C@]3(CO)[C@@H]4C(CC[C@]3(O)C2)[C@@]2(O)CC[C@H](C3COC(=O)C3)[C@@]2(C)C[C@H]4O)[C@H](O)[C@H](O)[C@H]1O (stereo partly drawn)", 24.4],
  ["COc1cc2c3c(c1OC)Oc1ccc(cc1)C[C@H]1c4c(cc(OC)c(OC)c4Oc4ccc(cc4)C[C@@H]3N(C)CC2)CCN1C", 35.2],
  ["N#CC(C#N)=NNc1ccc(-n2ccc(C(F)(F)F)n2)cc1", 31.2],
  ["Cc1cc2ccccn2c1C(C[N+](=O)[O-])c1c(F)cccc1Cl (stereo not drawn)", 29.6],
  ["Brc1ccc(-[n+]2c(-c3ccccc3)cc(-c3ccccc3)cc2-c2ccccc2)cc1", 24.1]
]}

----------
Procedure Details: HIF-1a luciferase reporter signal reduction – MiaPaCa-2 cells, single concentration, counter-screen for HIF-2a inhibitor project, confirmation (AID 651589)
Test Conditions: MiaPaCa-2 HIF-1a luciferase reporter, desferoxamine, overnight; at 18.8 µM; stronger effect = higher value
The list shows a part of the results.
Parameter: inhibition (%)

{"columns": ["Compound", "Parameter", "Recorded Value"],
 "data": [
  ["CC(=CCOc1ccc2ccc(=O)oc2c1)C1=CC(=O)C(C)(C)O1", "inhibition", 90.3],
  ["COC1C(O)C(C)OC(OC2CCC3(C=O)C(CCC4C3CCC3(C)C(C5=CC(=O)OC5)CCC43O)C2)C1O (stereo not given)", "inhibition", 105],
  ["CCOC(=O)[C@]12Cc3ccccc3[C@H]1N(C1CCCCC1)C(=O)c1cc(OC)ccc12", "inhibition", 106],
  ["CCC(C)(O)C(=O)OC1C(=O)OC2CC3C(C)=CC(=O)C(O)C3(C)C3C4(O)OCC23C1C(C)C4O (stereo not given)", "inhibition", 101],
  ["CCCCCCCCCCCCn1ccc(=N)cc1", "inhibition", 106]
]}

----------
Test system: Rat fibroblasts (CREF)
Procedure Details: Peg3 promoter luciferase inhibitors, potency, dose response, cell-based, HeLa, CREF/GAPDH counter-screen panel (AID 624167)
Test Conditions: CREF/GAPDH counter-screens; run 1, dose range 1, at 100 µM (top of the series)
Entries annotated with measured inhibition

{"columns": ["Compound", "inhibition"],
 "data": [
  ["COc1cc2nc(CN3CC=C(c4ccccc4)CC3)[nH]c(=O)c2cc1OC", "38.6%"],
  ["C=Cc1cc(OC)c2c(c1)c(=O)oc1c2cc(OC)c2c(O)ccc(C3OC(C)C(O)C(C)(O)C3O)c21 (stereo not drawn)", "25.3%"],
  ["CCC(c1nnnn1-c1ccc2c(c1)OCCO2)N1CCC(n2c(=O)[nH]c3ccccc32)CC1 (stereo not drawn)", "76.5%"],
  ["CCOC(=O)c1c(-n2c(C)cc(C=C3C(=O)NC(=S)NC3=O)c2C)sc2c1CCCC2", "95.9%"],
  ["O=C(CSC1c2ccccc2-c2ccccc21)N/N=C/c1ccccc1O", "64.9%"],
  ["CC(=O)OC1(C)CC(C)C(=O)C(C(O)CC2CC(=O)NC(=O)C2)C1 (stereo not drawn)", "61.8%"],
  ["CCN(CCCl)c1cc(CN(C)C)cc(NC(=O)c2ccc(C(=O)Nc3cc(CN(C)C)cc(N(CC)CCCl)c3)cc2)c1", "99.6%"],
  ["C[C@@H]1C[C@@H]([C@H](O)CC2CC(=O)NC(=O)C2)C(=O)[C@@H](C)C1", "62.3%"]
]}

----------
Entries annotated with measured inhibition
Procedure Details: inhibitors of PAF-induced NFkB signaling in CF airway cells, dose response, cell-based, uHTS hits, panel, cytotoxicity readout (AID 624344)
Test Conditions: CF bronchial epithelial cells, PAF-induced NFkB reporter inhibition, with PAF, run 1; at 79 µM (top of the series)
Parameter: inhibition (%)

{"columns": ["Molecule", "Recorded Value"],
 "data": [
  ["COc1ccc(-n2nnnc2C(CCSC)N2CCC(n3c(=O)[nH]c4ccccc43)CC2)cc1 (stereo unspecified)", 97.9],
  ["COc1ccc(-n2nnnc2C(CCc2ccccc2)N2CCC(n3c(=O)[nH]c4ccccc43)CC2)cc1 (stereo unspecified)", 103],
  ["C=CC[C@@H](CC/C=C/C=C/CC/C=C\\[C@@H]1CSC([C@@H]2C[C@@H]2C)=N1)OC", 91.9],
  ["COc1cc2c(c(OC)c1O)-c1ccc(OC)c(=O)cc1C(NC(=O)C(F)(F)F)CC2 (stereo unspecified)", -39.2],
  ["COc1ccc(-n2nnnc2C(c2cccs2)N2CCC(n3c(=O)[nH]c4ccccc43)CC2)cc1 (stereo unspecified)", 102],
  ["COc1cc(C2c3cc4c(c(O)c3CC3COC(=O)C32)OCO4)cc(OC)c1OC (stereo unspecified)", 110],
  ["C[C@H]1C[C@@H](C)C(=O)[C@@H]([C@H](O)CC2CC(=O)NC(=O)C2)C1", 107],
  ["COc1ccc(Oc2cc(NC(=O)c3nn(C)cc3[N+](=O)[O-])cc([N+](=O)[O-])c2)cc1", 113],
  ["O=c1[nH]c2ccccc2n1C1CCN(C(c2cccc3ccccc23)c2nnnn2Cc2ccccc2)CC1 (stereo unspecified)", 103],
  ["N#Cc1c(Br)n(C2OC(CO)C(O)C2O)c2ncnc(N)c12 (stereo unspecified)", 106],
  ["O=c1[nH]c2ccccc2n1C1CCN(C(c2cc3ccccc3o2)c2nnnn2-c2ccc3c(c2)OCCO3)CC1 (stereo unspecified)", 103],
  ["CC(=O)OC1(C)CC(C)C(=O)C(C(O)CC2CC(=O)NC(=O)C2)C1 (stereo unspecified)", 117],
  ["C[C@@H]1C[C@@H]([C@H](O)CC2CC(=O)NC(=O)C2)C(=O)[C@@H](C)C1", 106],
  ["CC(=O)c1c(C)n(C2CCCCC2)c2ccc(O)cc12", 95.6],
  ["C=C1C(C)C2C(Cc3ccccc3)NC(=O)C23OC(=O)/C=C/C(O)CCCC(C)C/C=C/C3C1O (stereo unspecified)", 104],
  ["C[C@H]1CCCC(=O)CCC/C=C/c2cc(O)cc(O)c2C(=O)O1", 102]
]}

----------
Entries annotated with measured activity, % sensitization
Test System: Tumor necrosis factor receptor superfamily member 10B (Homo sapiens)
Procedure Details: TRAIL sensitizers in caspase-8 expressing neuroblastoma cells, dose response, NB7 cells plus caspase-8, luminescence, panel (AID 652002)
Test Conditions: NB7 neuroblastoma +caspase-8, TRAIL sensitization, luminescence viability, NB7+Caspase-8, with TRAIL, run 2; at 12.5 µM (top of the series)
Parameter: activity, % sensitization (%)

{"columns": ["Line Notation", "Test System", "Recorded Value"],
 "data": [
  ["CC(C)CCn1c(=O)c(C(=O)Nc2ccccc2S(N)(=O)=O)c(O)c2ccccc21", "Tumor necrosis factor receptor superfamily member 10B (Homo sapiens)", -8.54],
  ["CCCC1(CCC)C(=O)NC(=NCc2ccccc2)NC1=O", "Tumor necrosis factor receptor superfamily member 10B (Homo sapiens)", 5.29],
  ["CCOC(=O)c1cccc(-[n+]2c(-c3ccccc3)cc(-c3ccccc3)cc2-c2ccccc2)c1", "Tumor necrosis factor receptor superfamily member 10B (Homo sapiens)", 9.91],
  ["CCOC(=O)[C@]12Cc3cc4ccccc4cc3[C@H]1N(Cc1ccccc1)C(=O)c1ccccc12", "Tumor necrosis factor receptor superfamily member 10B (Homo sapiens)", 31.7]
]}

----------
Entries annotated with measured activity
Test System: Tumor necrosis factor receptor superfamily member 10B (Homo sapiens) (UniProt O14763)
Sequence (O14763 whole entry, looked up): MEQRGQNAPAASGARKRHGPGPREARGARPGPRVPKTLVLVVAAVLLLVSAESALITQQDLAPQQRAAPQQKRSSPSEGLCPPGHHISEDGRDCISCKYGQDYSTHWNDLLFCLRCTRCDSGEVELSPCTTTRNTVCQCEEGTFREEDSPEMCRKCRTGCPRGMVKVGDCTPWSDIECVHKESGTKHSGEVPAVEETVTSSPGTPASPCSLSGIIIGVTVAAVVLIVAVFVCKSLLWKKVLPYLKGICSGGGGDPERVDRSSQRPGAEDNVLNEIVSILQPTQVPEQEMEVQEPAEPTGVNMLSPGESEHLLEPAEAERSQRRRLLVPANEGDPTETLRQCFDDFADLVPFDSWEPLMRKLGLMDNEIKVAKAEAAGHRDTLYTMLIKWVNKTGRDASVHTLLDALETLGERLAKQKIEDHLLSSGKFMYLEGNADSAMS
Procedure Details: caspase-8 TRAIL sensitization, hit retest, confirmation, cell-based, NB7+caspase-8, with/without TRAIL, luminescence panel (AID 651596)
Test Conditions: NB7 neuroblastoma + caspase-8, TRAIL sensitization, luminescence viability, with TRAIL, mean of runs, at 10 µM, stronger effect = higher value
Parameter: activity (%)

{"columns": ["Compound", "Test System", "Recorded Value"],
 "data": [
  ["COc1cccc(-c2nc3ccc(N4CCN(C)CC4)cc3[nH]2)c1", "Tumor necrosis factor receptor superfamily member 10B (Homo sapiens) (UniProt O14763)", 90.4],
  ["CCOc1ccc(-c2c(C)n(-c3ccc(OCC)cc3)c3[n+]2CCCCC3)cc1", "Tumor necrosis factor receptor superfamily member 10B (Homo sapiens) (UniProt O14763)", 61],
  ["CCC(C)C1NC(=O)C(NC(=O)C(CC(C)C)N(C)C(=O)C2CCCN2C(=O)C(C)O)C(C)OC(=O)C(Cc2ccc(OC)cc2)N(C)C(=O)C2CCCN2C(=O)C(CC(C)C)NC(=O)[C@H](C)C(=O)[C@H](C(C)C)OC(=O)CC1O (some centres undefined)", "Tumor necrosis factor receptor superfamily member 10B (Homo sapiens) (UniProt O14763)", 96.9],
  ["Oc1ccc(-[n+]2c(-c3ccccc3)cc(-c3ccccc3)cc2-c2ccccc2)cc1", "Tumor necrosis factor receptor superfamily member 10B (Homo sapiens) (UniProt O14763)", 90.3],
  ["CCOC(=O)c1cccc(-[n+]2c(-c3ccccc3)cc(-c3ccccc3)cc2-c2ccccc2)c1", "Tumor necrosis factor receptor superfamily member 10B (Homo sapiens) (UniProt O14763)", 49.7],
  ["O=[N+]([O-])c1ccc(Cl)c([N+](=O)[O-])c1", "Tumor necrosis factor receptor superfamily member 10B (Homo sapiens) (UniProt O14763)", -3.27],
  ["CC1CC(C)CC(C)C(O)C(C#N)=CC=CCC(C2CCCC2C(=O)O)OC(=O)CC(O)C(C)C1 (centres undefined)", "Tumor necrosis factor receptor superfamily member 10B (Homo sapiens) (UniProt O14763)", 94],
  ["N#CC1c2ccccc2-n2nncc2CN1Cc1cc(Cl)cc(Cl)c1 (centres undefined)", "Tumor necrosis factor receptor superfamily member 10B (Homo sapiens) (UniProt O14763)", 55.8],
  ["CCCC1(CCC)C(=O)NC(=NCc2ccccc2)NC1=O", "Tumor necrosis factor receptor superfamily member 10B (Homo sapiens) (UniProt O14763)", 51.6]
]}
